Tested on: LOX IMVI melanoma
Assay: NCI tumour cell line growth inhibition, 48 h
Measured TGI, listed per entry.

Previously resolved entries follow.
The value of TGI measured for the compound C=C(C)CC1=C(OCC)C(OC)(OCC)C1=O (configuration not stated) turned out to be > 100 µM

The value of TGI measured for the compound "Cc1cccc2c(N=Nc3ccc(S(N)(=O)=O)cc3)c(O)[nH]c12" turned out to be > 25 µM

The value of TGI measured for the compound "CCOC(=O)/C(=C/c1ccc([N+](=O)[O-])cc1)C(=O)c1ccccc1" turned out to be 3.38 µM

Continuing:
The value of TGI measured for the compound "C[C@]12CCC(=O)C=C1CC[C@@H]1[C@@H]2CC[C@]2(C)C(=O)[C@H](n3ccnc3)C[C@@H]12" turned out to be > 100 µM

The value of TGI measured for the compound "Cc1cc2c(cc1Cl)SC(N/N=C(\N)c1ccc(Cl)cc1)=NS2(=O)=O" turned out to be > 100 µM

====

Measured TGI, listed per entry.
System: MCF7 breast
Test: NCI tumour cell line growth inhibition, 48 h

Tested system MCF7 breast; TGI recorded for CC(=O)Nc1ccc(C(=O)NN2C(=O)C(Cl)C2c2cc(Br)ccc2O)cc1 (stereo not drawn) was > 100 µM

Tested system MCF7 breast; TGI recorded for O=C(NC1CCC(=O)N1C(=O)OCc1ccccc1)OCc1ccccc1 (stereo not drawn) was > 100 µM

Tested system MCF7 breast; TGI recorded for CCC(C)C1NC(=O)C2CCCN2C(=O)C(CC2CO2)OC(=O)CCNC(=O)C(C)N(C)C(=O)C(C(C)C)N(C)C1=O (stereo not drawn) was > 100 µM

====

Measured TGI, listed per entry.
Tested on: RPMI-8226 leukemia
Assay: NCI tumour cell line growth inhibition, 48 h

Previously resolved entries follow.
The value of TGI measured for the molecule "O=S1(=O)OC(c2ccc(O)cc2)(c2ccc(O)cc2)c2ccccc21" turned out to be > 100 µM

The value of TGI measured for the molecule OC(c1cccnc1)C(F)(F)c1nc2ccccc2o1 (stereo not drawn) turned out to be > 100 µM

The value of TGI measured for the molecule COC(=O)C1=NN2c3ccccc3C(=O)OCCC2(C)C1 (stereo not drawn) turned out to be > 100 µM

Continuing:
The value of TGI measured for the molecule "COc1ccc(/C=C(\C#N)c2nc(N)nc(N3N=C(C)CC3(C)C)n2)c(O)c1" turned out to be 98.7 µM

The value of TGI measured for the molecule "COc1[nH]c(C(Cl)(Cl)Cl)c(Cl)c(=O)c1Cl" turned out to be > 100 µM

====

Measured TGI, listed per entry.
System: UACC-62 melanoma
Assay: NCI tumour cell line growth inhibition, 48 h

Previously resolved entries follow.
The value of TGI measured for the molecule CC(C)(C)[Si](C)(C)OCCCCC1CC2(S(=O)(=O)C3=CC=C=C=C3)ON1CC2S(=O)(=O)c1ccccc1 (centres undefined) turned out to be > 100 µM

The value of TGI measured for the molecule "O=S(=O)(O)c1cccc2c(N=Nc3c(O)ccc4ccccc34)cccc12" turned out to be > 100 µM

The value of TGI measured for the molecule "Cc1ccc([N+](=O)[O-])cc1NC(=O)C(=O)Cc1occc(=O)c1O" turned out to be > 100 µM

The value of TGI measured for the molecule CC(=O)NC(CCCCNC(=O)N(CCCl)N=O)C(=O)NCc1ccccc1 (centres undefined) turned out to be > 100 µM

The value of TGI measured for the molecule COc1ccccc1C(C1=C(O)COC1=O)c1cc2c(cc1OC(C)=O)OCO2 (centres undefined) turned out to be > 100 µM

The value of TGI measured for the molecule "CC(=O)OCCCCn1cnc2nc(Nc3ccccc3)nc(Cl)c21" turned out to be > 100 µM

Continuing:
The value of TGI measured for the molecule "CC1(C)CC[C@]2(C(=O)O)CC[C@]3(C)C(=CC[C@@H]4[C@@]5(C)C[C@H](O)[C@H](O)[C@@](C)(CO)C5=CC[C@]43C)[C@@H]2C1" turned out to be > 100 µM

====

Tested on: IGROV1 ovarian
Assay: NCI tumour cell line growth inhibition, 48 h
Measured TGI, listed per entry.

Previously resolved entries follow.
The value of TGI measured for the compound "O=S(=O)(N=S(c1ccc(Cl)cc1)c1ccc(Cl)cc1)c1ccccc1" turned out to be > 100 µM

The value of TGI measured for the compound "O=S1(=O)OC(c2ccc(O)cc2)(c2ccc(O)cc2)c2ccccc21" turned out to be > 100 µM

Continuing:
The value of TGI measured for the compound "O=[N+]([O-])c1cc(CCl)ccc1CCl" turned out to be 2.92 µM

====

Tested on: SR leukemia
Test: NCI tumour cell line growth inhibition, 48 h
Measured TGI, listed per entry.

Previously resolved entries follow.
The value of TGI measured for the compound "CSC(=NCCCCN=C(NS(=O)(=O)c1ccc(Cl)cc1)SC)NS(=O)(=O)c1ccc(Cl)cc1" turned out to be > 100 µM

The value of TGI measured for the compound "COc1ccc(/C=C(\C#N)c2nc(N)nc(N3N=C(C)CC3(C)C)n2)c(O)c1" turned out to be 35.7 µM

The value of TGI measured for the compound OCC1OC(Oc2cc(O)cc(/C=C\c3ccc(O)cc3)c2)C(O)C(O)C1O (stereo not given) turned out to be > 100 µM

The value of TGI measured for the compound N#CC(c1ccccc1)N1CCCN(C(C#N)c2ccccc2)C1c1ccccc1O (stereo not given) turned out to be > 100 µM

As a next step, examine the compound that follows.
The value of TGI measured for the compound O=C1OCC2(CO1)CC1C=CC2C1 (stereo not given) turned out to be > 100 µM

====

Tested on: UACC-257 melanoma
Experiment: NCI tumour cell line growth inhibition, 48 h
readout kind: TGI

The value of TGI measured for the compound COC(=O)C(=O)C(C(=O)C(=O)Nc1ccc(Cl)cc1C)c1nc2ccc(C(=O)c3ccccc3)cc2[nH]c1=O (stereo not drawn) turned out to be > 100 µM

Continuing:
The value of TGI measured for the compound "O=C1OCc2c1cc(F)cc2[N+](=O)[O-]" turned out to be > 100 µM

The value of TGI measured for the compound COC(=O)C(C)NP(=O)(OCc1ccc(Cn2cnc3c(=O)[nH]c(N)nc32)cc1)Oc1ccccc1 (stereo not drawn) turned out to be > 100 µM

====

Test system: MCF7 breast
Assay: NCI tumour cell line growth inhibition, 48 h
Measured TGI, listed per entry.

Tested system MCF7 breast; TGI recorded for "COC(=O)c1ccc(N=NN(C)COc2ccc(C#N)cc2)cc1" was > 100 µM

Tested system MCF7 breast; TGI recorded for COC(=O)C(C)NP(=O)(OCc1ccc(Cn2cnc3c(=O)[nH]c(N)nc32)cc1)Oc1ccccc1 (stereo unspecified) was > 100 µM

Tested system MCF7 breast; TGI recorded for NC1CC(=O)c2c(Cl)sc(Cl)c21 (stereo unspecified) was 7.9 µM

Tested system MCF7 breast; TGI recorded for "S=c1nc2[nH]ncc2c(N/N=C/c2ccccc2)[nH]1" was 47 µM

Tested system MCF7 breast; TGI recorded for "Cn1c(=O)c2c(no[n+]2[O-])n(C)c1=O" was > 100 µM

As a next step, examine the compound that follows.
Tested system MCF7 breast; TGI recorded for "N#CC(=S)Nc1ccc(Cl)c(Cl)c1" was > 73.4 µM

====

Tested on: LOX IMVI melanoma
Test: NCI tumour cell line growth inhibition, 48 h
*1 amine or outer side, *2 acyl side, *3 side chain or, on linkers, in order; H or OH if unused. Where a SMILES comes first, the peptide text is derived from it. Bridges are numbered along the chain shown (N, C = ends). Roman numbers before positions name the chains, in order. [ ]: non-standard residue; d: D form. Actinocin(9to1) = Cc1c2oc3c(C)ccc(C(=O)[*:1])c3nc-2c(C(=O)[*:2])c(N)c1=O; X48 = O=C1CC(C(=O)[*:2])N([*:1])C1; NMeV = CN[CH](C(=O)O)C(C)C; Sar = CNCC(=O)O
Measured TGI, listed per entry.

Previously resolved entries follow.
The value of TGI measured for the compound O=C1N=C(c2ccccc2)OC1C(=O)c1ccccc1 (stereo unspecified) turned out to be > 100 µM

The value of TGI measured for the compound "O=C(c1cccc(OCc2ccccc2)c1OCc1ccccc1)N1CCSC1=S" turned out to be > 100 µM

The value of TGI measured for the compound "COc1ccc(-c2cnc3ccnn3c2-c2cc(OC)c(OC)c(OC)c2)cc1" turned out to be > 100 µM

The value of TGI measured for the compound CC(=O)OC1CC(O)CC2=CCC3C4CCC(C(C)(O)C(O)CC5COC(=O)C5C)C4(C)CCC3C21C (stereo unspecified) turned out to be > 25 µM

The value of TGI measured for the compound Cc1c2oc3c(C)ccc(C(=O)NC4C(=O)NC(C(C)C)C(=O)N5CC(=O)CC5C(=O)N(C)CC(=O)N(C)C(C(C)C)C(=O)OC4C)c3nc-2c(C(=O)NC2C(=O)NC(C(C)C)C(=O)N3CC(=O)CC3C(=O)N(C)CC(=O)N(C)C(C(C)C)C(=O)OC2C)c(N)c1=O (stereo unspecified) (I: TV[X48][Sar][NMeV] / II: TV[X48][Sar][NMeV]; ester I:1-I:C, II:1-II:C; linker I:N-II:N via Actinocin(9to1); configuration not given here) turned out to be > 1 µM

As a next step, examine the compound that follows.
The value of TGI measured for the compound "O=C(C#CP(=O)(O)c1ccccc1)c1ccccc1" turned out to be > 100 µM
